measured target: FLT3 (Homo sapiens)
Sequence (P36888 27-993): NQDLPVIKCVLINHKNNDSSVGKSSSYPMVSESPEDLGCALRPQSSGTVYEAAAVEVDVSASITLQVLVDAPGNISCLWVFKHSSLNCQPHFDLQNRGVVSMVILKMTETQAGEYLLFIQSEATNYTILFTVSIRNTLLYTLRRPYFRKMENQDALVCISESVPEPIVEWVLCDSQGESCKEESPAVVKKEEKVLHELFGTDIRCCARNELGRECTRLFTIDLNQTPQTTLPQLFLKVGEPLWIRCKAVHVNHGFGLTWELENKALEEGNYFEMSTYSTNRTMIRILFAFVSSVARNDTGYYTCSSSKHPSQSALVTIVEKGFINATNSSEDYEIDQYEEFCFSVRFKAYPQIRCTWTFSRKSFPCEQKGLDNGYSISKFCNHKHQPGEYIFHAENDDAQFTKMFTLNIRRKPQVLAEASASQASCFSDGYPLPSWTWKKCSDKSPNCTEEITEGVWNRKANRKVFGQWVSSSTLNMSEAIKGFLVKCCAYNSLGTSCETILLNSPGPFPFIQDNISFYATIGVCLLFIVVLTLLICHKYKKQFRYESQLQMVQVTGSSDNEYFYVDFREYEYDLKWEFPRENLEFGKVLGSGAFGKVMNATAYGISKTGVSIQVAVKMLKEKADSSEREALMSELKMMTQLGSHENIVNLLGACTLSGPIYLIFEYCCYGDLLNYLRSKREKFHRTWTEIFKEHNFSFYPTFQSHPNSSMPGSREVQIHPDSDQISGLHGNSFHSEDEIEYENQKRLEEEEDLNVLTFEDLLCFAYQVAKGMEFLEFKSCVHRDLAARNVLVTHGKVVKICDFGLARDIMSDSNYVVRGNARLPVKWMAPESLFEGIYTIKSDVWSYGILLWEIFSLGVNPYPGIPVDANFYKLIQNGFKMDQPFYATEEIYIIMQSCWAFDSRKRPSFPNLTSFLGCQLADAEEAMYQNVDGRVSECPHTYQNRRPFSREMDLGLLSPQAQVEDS
assay readout: IC50 (nM)

Reference set (2 entries):
- molecule: "CCNC(=O)c1ccc(-c2nc(Nc3cnn(C)c3)ncc2C)cc1 [Example 222]"
  measured target: "FLT3 (Homo sapiens)"
  uom: "nM"
  IC50: 1890
- molecule: "Cn1cc(Nc2ncc(Cl)c(-c3ccc(C(=O)NCC#N)cc3)n2)cn1 [Example 34]"
  measured target: "FLT3 (Homo sapiens)"
  uom: "nM"
  IC50: 10.9

A: CNC(=O)c1ccc(-c2nc(Nc3cnn(C)c3)ncc2C)cc1 [Example 10]
B: CC[C@@H](C#N)NC(=O)c1ccc(-c2nc(Nc3cnn(C4CC4)c3)ncc2Cl)cc1 [Example 61]
// select label with min value of measured IC50 from [ A , B ] Your answer should be the label attached to the chosen record. B

Every entry's value here was drawn from patent US12595253B2.
